system: Staphylococcus aureus; experiment: In vivo efficacy of compounds administered subcutaneously in mouse intraperitoneal infections; conditions: sc, 168 h; mouse i.p. Staphylococcus aureus infection; subcutaneous; dosed at infection and 4 h post-infection; 7 days; read-out: ED50 (50 percent effective dose)
Kindly supply the reported log10 ED50 values for the records listed here.
Annotation: log10 of ED50, mg/kg basis.

Consider the worked cases shown below.
>  <compound>
CC(=O)c1ccc(N2CC(CN=[N+]=[N-])OC2=O)cc1 (stereo not drawn) [Example 5]

>  <measured_target>
Staphylococcus aureus

>  <readout_value>
1.61

$$$$
>  <compound>
C#Cc1ccc(N2CC(CNC(C)=O)OC2=O)cc1 (single isomer, unassigned) [Example 182]

>  <measured_target>
Staphylococcus aureus

>  <readout_value>
0.85

$$$$
>  <compound>
CC(C)(C)C(=O)NCC1CN(c2ccc(S(C)(=O)=O)cc2)C(=O)O1 (stereo not drawn) [Example 30]

>  <measured_target>
Staphylococcus aureus

>  <readout_value>
1.76

$$$$
>  <compound>
COC(=O)NCC1CN(c2ccc(C(F)(F)F)cc2)C(=O)O1 (stereo not drawn) [Example 42]

>  <measured_target>
Staphylococcus aureus

>  <readout_value>
1.32

$$$$
>  <compound>
CC(=O)NCC1CN(c2ccc(N)cc2)C(=O)O1 (single isomer, unassigned) [Example 149]

>  <measured_target>
Staphylococcus aureus

>  <readout_value>
1.01

$$$$

I'm hoping you can list log10 ED50 for every compound here, please.
1. CC(=O)c1ccc(N2CC(CN)OC2=O)cc1 (stereo not drawn) [Example 15]
2. CS(=O)(=O)c1ccc(N2CC(CNC(=O)CCl)OC2=O)cc1 (stereo not drawn) [Example 67]
3. CC(=O)NCC1CN(c2ccc(NS(C)(=O)=O)cc2)C(=O)O1 (single isomer, unassigned) [Example 151]
4. CC(=O)NCC1CN(c2ccc(C(C)=NO)cc2)C(=O)O1 (single isomer, unassigned) [Example 159]
5. CC(=O)NCC1CN(c2ccc(C(C)(C)C)cc2)C(=O)O1 (stereo not drawn) [Example 105]
6. CCCC(=O)c1ccc(N2CC(CNC(C)=O)OC2=O)cc1 (stereo not drawn) [Example 138]
7. CC(=O)NCC1CN(c2ccc(C(C)C)cc2)C(=O)O1 (stereo not drawn) [Example 38]

1.40
1.27
0.99
0.04
1.14
0.71
0.68
